- test: yeast display, Sf9 membrane polyspecificity reagent, FACS + sequencing; frameworks hold sequencing errors
endpoint: polyreactivity (PSR sort gate)

Examples with answers:
Request: Please give measured polyreactivity (PSR sort gate) of the following entry: QDQLVESGGGLVQAGGSLRLSCAASGRIFYFNTMGWSRQAPGKERELVAAISKNGGSTYYADSVKGRFTISRDIAKNTVYLQMNSLKPEDTAVYYCAKTRRLSPYDYWGQGTQVTVSS
Result: high polyreactivity

Request: Please give measured polyreactivity (PSR sort gate) of the following entry: QVPLVESGGGLVQAGGSLRLSCAASGRTFPSNMGWYRQAPGKERELVAAISWRGGSTNYADSVKGRFTISRDNAKNTVYLQMNSLKPEDTAVYYCNARYNTQRYRFLVQGDYWGQGTQVTVSS
Result: high polyreactivity

Request: Please give measured polyreactivity (PSR sort gate) of the following entry: QVQLVESGGGLVQAGGSLRLSCAASGRIFGGNVMGWNRQATWKERELVAFITRGTRTNYADSVKGRFTISRDNAKNTVYLQMNSLKPEDNAVFYCAADSRNSRQHTSYNSLNYWGQGTQVTVSS
Result: high polyreactivity

Request: Please give measured polyreactivity (PSR sort gate) of the following entry: QVQLVESGGGLVQAGGSLRLSCAASGIIFVVYAMGWYRQAPGKERELVAAISFRGGSTYYADSVKGRFTISRDNAKNTVYLQMNSLKPEDTAVYYCAARAFRHDGYDYWGQGTQVTVSS
Result: low polyreactivity

Request: Please give measured polyreactivity (PSR sort gate) of the following entry: QVQLVESGGGLVQAGGSLRLSCAASGITFYWYTMGLYRQAPGKERELVAAISSRGSSTRYADSVKGRFTISRDNAKNTVYLQMNSLKPEDTAVYYCAADDLSDGYYDEAYEDNYWGQGTQVTVSS
Result: low polyreactivity

Next sequence, polyreactivity (PSR sort gate) to be filled in.
Request: Please give measured polyreactivity (PSR sort gate) of the following entry: QVQLVESGGGLVQAGGSLRLSCAASGRTFSYYAMRWYRQAPGKERELVAAITSGGSTYYADSVKGRFTISRDNAKNTVYLQMNSLKPEDTAVYYCAKYQSYGPVPFGRGYGHYYWGQGTQVTVSS
Result: high polyreactivity

----------
- test: yeast display, Sf9 membrane polyspecificity reagent, FACS + sequencing; frameworks hold sequencing errors
endpoint: polyreactivity (PSR sort gate)

Request: Please give measured polyreactivity (PSR sort gate) of the following entry: QVQLVESGGGLVQAGVSLRISSAASGLIFGSNAMGWYRQAPGIERELVAAISWRGGSTYYADSVKGRFTISRDNAKKTVSCQMNSLKPEDTAVYYCAKYPYYYYWFNYCGQGTQVTVSS
Result: high polyreactivity

Request: Please give measured polyreactivity (PSR sort gate) of the following entry: QVQLVESGGGLVQAGGSLRISCAASGIIFAYAMGWYRQAPGKERELVAAISGRDGSTYYADSVKGRFTISRDNAKNTVYLQMISLKQEDTAVYFCAAGDYYLQDNYWGQGTQVTVSS
Result: low polyreactivity

Request: Please give measured polyreactivity (PSR sort gate) of the following entry: QVQLVESGGGLVQAGGSLRLSCAASGFTFILYAMGWYRQAPGKERELVAAITTSGGRTYYADSVKGRFTISRDTAKNTVYLQMNSLKPEDTAVYYCNARTTPKERDYWGQGTQVTVSS
Result: high polyreactivity

Request: Please give measured polyreactivity (PSR sort gate) of the following entry: QVQLVESGGGLVQAGGSLRLSCAASGGIFLSNAMGWYRQAPGKERELVAAISRSGGSTYYADSVKWRFTISRDNAKNTVYLQMYSLKPEDTAVYYCAARWTRNYGMNYWGQGTQVTVSS
Result: high polyreactivity

Request: Please give measured polyreactivity (PSR sort gate) of the following entry: QEQLQESGGGQVQDGGSLRMSCAASGSISYASGLCWYSQEQGKEREFVASIDPGAITNYADSVKGRFTISHDNAKNTVYLQMNRLKPEDTAVYYCAADGHGGYGYWGQGTQVTVSS
Result: high polyreactivity

Request: Please give measured polyreactivity (PSR sort gate) of the following entry: QVQLVESGGGLVQAGGSLRLSCAASGRIFVINAMGWYRQAPGKERELVAAISQSGGSTYYADSVKGRFTISRDNAKNTVYLQMNSLKPEDTAVYYCNALSNVPYDYWGQGTQVTVSS
Result: low polyreactivity

Request: Please give measured polyreactivity (PSR sort gate) of the following entry: QVQLVESGGRLVQAGGSLRLSCAASGFTFDSYDMGWYRQEPGKERELVAAITWSGGSTYYADSVKGRFTISRDNAKNTVYLQMNSLKPEDTAVYYCNADTGTYWVPWYHDGYDYWGQGTQVTVSS
Result: low polyreactivity

Request: Please give measured polyreactivity (PSR sort gate) of the following entry: QLQLEESGGGLVQAGGSLSLRCAASGRIFSRYPMGWYRQAPGKERELVAAISSRAGSTYYADSVKGRFTISRDNAKNTVYLQMNSLKPEDTAVYYCNNPSYSCSSPYDHWGQGTQVTVSS
Result: high polyreactivity

Next:
Request: Please give measured polyreactivity (PSR sort gate) of the following entry: QVQLVESGGGLVQAGRSLRLSCAASGSIFGFYAMGCYRQAPGKERELVAASTVSDGTTYYADSVKGRFTISRDNAKNSFFFLMNSVKPEDTVVYYCAGDVFRQHEYYYWGQGTQVTVSS
Result: low polyreactivity

Request: Please give measured polyreactivity (PSR sort gate) of the following entry: QVQLVESGGGLVQAGGSLRLSCAASGYMGWYRQAPGKERELVATISGSGGSPYYADSVKGRFSISRDNAKNTVYLQMNSLKPEDTARYYCTTEIWGVNRSGYDYWGQGTQVTVSS
Result: low polyreactivity

Request: Please give measured polyreactivity (PSR sort gate) of the following entry: QVHLVESGGGLVQAGGSRRLSCAASGSIFRWYAMGWSRQAPGKERELVAAITRSGGRTYYADSVKGRFTISRDNAKNTVYLQMNSLKPEDTAVYYCAAVARTVPSYSYNYWGQGTQVTVSS
Result: high polyreactivity

Request: Please give measured polyreactivity (PSR sort gate) of the following entry: QVQLVESGGGLVQAGGSLRLICAASGSIFYVNAMGWYRQEPGKERELVAGISRSGSSTYYADSVKGRFTISRDNAKNTVYLLMNSLKPEDTAVYYCNRVYQGRGWHDYWGQGTQVTVSS
Result: high polyreactivity

Request: Please give measured polyreactivity (PSR sort gate) of the following entry: QVQLVESGGGLVQAGGSLRLSCAASGFTFRYYAMGWYRQAPGKEREFVAAIRRSGANTYYADSVKGRFTISRDNAKNTVYLQMNSLKPEDTAVYYCGTRLRGSGRLYNYWGQGTQVTVSS
Result: high polyreactivity

Request: Please give measured polyreactivity (PSR sort gate) of the following entry: QVQLQESGGGLVQASGSLRLSCASSGNIFPDYVMAWYRLAPGKEREFVANITGGSTTNYADSVKGRFTISRDNAKNTVDLQMNSLTPEDTAVYYCAVNFGTVVLYLYWGQGTQVSVSS
Result: high polyreactivity

Request: Please give measured polyreactivity (PSR sort gate) of the following entry: QVQLVESGGGLVQAGGSLRLSCAASGSTFGRNAMGWYRQAPGKERELVAAISKTGGSTYYADSVKGRFTISRDTAKNTVYLQMNSLKPEDTAVYYCAARIRGFRTYYYWGQGTQVTVSS
Result: high polyreactivity

Request: Please give measured polyreactivity (PSR sort gate) of the following entry: QVQLVESGGGLVQAGGSHRLSCASYGSIFRCYAKGWYRQAPGKERELVAGITRSGGSTYYADSVKGRFTISRDNAKNTVYLQLNRLKPEDTAVYYCNADLYRKRAWVRRDGSWGHGTQVTVSS
Result: low polyreactivity

Request: Please give measured polyreactivity (PSR sort gate) of the following entry: QVQLVESGGGLVQAGGSLRLSCDASGIIFGYYAMGWYRQAPGKERELVAGITWRGDITYADSVKGRFTISRDNAKNTVYLQMNSLKPEDTAVYYCAAESSFYRGYGYWGQGTQVTVSS
Result: high polyreactivity

Request: Please give measured polyreactivity (PSR sort gate) of the following entry: QVQLVESGGGLVQAGGSLRVSCAASGSIFYSYGMGWYRQAPVKERELVAAITSSGGGTYYADSVKGRFTISRDNAKNSVYLQMNSLKPEDTAVYYCAAHDRNYNYYPTFYYWGQGTQVSVSS
Result: low polyreactivity

Request: Please give measured polyreactivity (PSR sort gate) of the following entry: QVQLVESGGGLVQAGGSLRLSCAASGGLFYYNAMGWYRQAPGKERELVAAISGSGGTTYYADSVKGRFTISRDNAKNTVYLQMNSLKPEDTAVYYCAKRPYTVIAYSRYGYWGQGTQVTVSS
Result: high polyreactivity

Request: Please give measured polyreactivity (PSR sort gate) of the following entry: QVQLVESGGGLVQAGGSLRLSCAASGSTFGDYVMGWYRQAPGKERELVATITDSGGSTYYADSVKGRFTISRDNAKNTVYLQMNSLKPEDTAVYYCNKDFSVEVYDTAYNYYSYRYGYWGQGTQVTVSS
Result: low polyreactivity

Request: Please give measured polyreactivity (PSR sort gate) of the following entry: QVQLVESGGGLVQAGGSLRLSCAASGTFYPNAMGWYRQAPGKERELVAAISEDGGGTYYADSVKGRFTISRDNAKNTVYLQMNSLKPEDTAVYYCAAEYYDYWYTYDYWGQGTQVTVSS
Result: high polyreactivity
